In this section, each of the compounds is paired with its reported melting point.

Some compounds with recorded melting point:
# compound, melting point
data = [
    ("CCOCCOCCn1ccc2c1CC(c1ccccc1Cl)C1C(=O)NC(=O)C21 (stereo unspecified)", "158 to 162 °C"),
    ("C#CCOc1ccc(C(=O)C=Cc2cccnc2)c(O)c1", "115 to 117 °C"),
    ("CCCCCCCCC#CCC#CCC#CCS(=O)CC(=O)NCC (stereo unspecified)", "77 °C"),
    ("CCCCC#CC#CCOc1ccc(C(=O)O)cc1", "165 to 166 °C"),
    ("CC(=O)Nc1cc(C(C)(C)C)c(Cl)cc1CN(C)C1CCCCC1", "174 to 176 °C"),
    ("COc1cc2c(cc1Nc1ncc(Cl)c(Nc3ccccc3OCC#N)n1)CCN(CC(=O)N(C)C)CC2", "77 to 93 °C"),
]

Query melting point for `NC(=O)c1c(Cl)ccc([N+](=O)[O-])c1Cl`
163 to 165 °C

Query melting point for `COc1ccc(-c2ccc3c(c2)c2c(C=Cc4ccccc4)ccnc2n3S(=O)(=O)c2ccccc2)cc1`
190 to 192 °C

Please supply the value of reported melting point for the item `COc1ccc(-c2cn[nH]c2N)cc1OC`
143 to 146 °C

Return melting point (reported value) for this compound: COc1ccc(CSC(=S)N2C(CO)Cc3c([nH]c4ccccc34)C2C)cc1 (stereo unspecified)
152 to 153 °C
